Origin of values: patent US7348318B2

Overview of recorded IC50 for various compounds
# study.system: dipeptidyl peptidase IV (Rattus norvegicus, UniProt P14740)
# Construct: partially purified from rat kidney homogenate by ammonium sulfate fractionation; from tissue; host or cells: rat kidney
# Sequence (P14740 whole entry): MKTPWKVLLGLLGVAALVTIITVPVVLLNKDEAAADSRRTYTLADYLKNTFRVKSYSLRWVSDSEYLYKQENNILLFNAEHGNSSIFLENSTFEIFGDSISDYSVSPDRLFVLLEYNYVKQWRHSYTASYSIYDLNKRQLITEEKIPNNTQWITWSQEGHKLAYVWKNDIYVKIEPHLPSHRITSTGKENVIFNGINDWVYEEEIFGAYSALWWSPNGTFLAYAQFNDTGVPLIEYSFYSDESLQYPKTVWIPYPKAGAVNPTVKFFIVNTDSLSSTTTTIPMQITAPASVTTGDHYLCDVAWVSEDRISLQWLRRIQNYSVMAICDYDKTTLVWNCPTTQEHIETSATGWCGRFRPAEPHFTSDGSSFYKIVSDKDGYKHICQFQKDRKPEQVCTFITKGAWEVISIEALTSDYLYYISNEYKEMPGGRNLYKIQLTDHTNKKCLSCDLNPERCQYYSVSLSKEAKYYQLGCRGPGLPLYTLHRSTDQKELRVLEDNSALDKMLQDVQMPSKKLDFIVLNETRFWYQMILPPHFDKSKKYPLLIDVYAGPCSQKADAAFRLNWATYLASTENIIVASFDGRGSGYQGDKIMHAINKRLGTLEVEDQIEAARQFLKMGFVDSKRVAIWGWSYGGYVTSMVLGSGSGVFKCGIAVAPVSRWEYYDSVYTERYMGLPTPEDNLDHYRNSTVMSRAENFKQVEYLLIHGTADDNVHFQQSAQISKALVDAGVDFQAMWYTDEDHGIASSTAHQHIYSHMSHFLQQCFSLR
# assay.comment: biochemical
# conditions.used: glycyl·prolyl·β-naphthylamide, pH 7.2, 37° C., 1 hour, read-out: Dipeptidyl peptidase IV 50% inhibition activity value (converted)
observation.type: IC50

compound=NP(N)(=O)N1CCC[C@H](NCc2ccccc2)C1=O assay_result="3900 nM"
compound="CC(=O)NP(N)(=O)N1CCC[C@H](N)C1=O (single isomer, unassigned)" assay_result="1620 nM"
compound=N[C@@H]1CCCN(P(N)(N)=O)C1=O assay_result="48.4 nM"
compound="CCCNP(N)(=O)N1CCC[C@H](N)C1=O (mixture of isomers)" assay_result="7260 nM"
compound="CC(C)(C)CC(=O)NP(N)(=O)N1CCC[C@H](N)C1=O (mixture of isomers)" assay_result="1480 nM"
compound="N[C@H]1CCCN(P(N)(=O)NC(=O)COc2ccccc2)C1=O (mixture of isomers)" assay_result="187 nM"
compound="COc1ccc(C(=O)NP(N)(=O)N2CCC[C@H](N)C2=O)cc1 (mixture of isomers)" assay_result="1070 nM"
compound="CCCC(=O)NP(N)(=O)N1CCC[C@H](N)C1=O (mixture of isomers)" assay_result="1140 nM"
compound=CCCN[C@H]1CCCN(P(N)(N)=O)C1=O assay_result="3670 nM"
compound="N[C@H]1CCCN(P(N)(=O)NC(=O)C2CCCCC2)C1=O (mixture of isomers)" assay_result="1590 nM"
compound=CCCCN[C@H]1CCCN(P(N)(N)=O)C1=O assay_result="3750 nM"
compound=CN[C@H]1CCCN(P(N)(N)=O)C1=O assay_result="1410 nM"
compound=CC(C)N[C@H]1CCCN(P(N)(N)=O)C1=O assay_result="17900 nM"
compound="N[C@H]1CCCN(P(N)(=O)NC(=O)c2ccccc2)C1=O (mixture of isomers)" assay_result="2400 nM"
compound=N[C@H]1CCCN(P(=O)(Nc2ccccc2)Nc2ccccc2)C1=O assay_result="43600 nM"
compound="N[C@H]1CCCN(P(N)(=O)NC(=O)CCc2ccccc2)C1=O (mixture of isomers)" assay_result="894 nM"
compound="N[C@H]1CCCN(P(N)(=O)Nc2ccccc2)C1=O (single isomer, unassigned)" assay_result="5590 nM"
compound=N[C@H]1CCCN(P(N)(N)=O)C1=O assay_result="88.5 nM"
compound=NP(N)(=O)N1CCC[C@H](NCc2ccco2)C1=O assay_result="7710 nM"
compound=N[C@H]1CCCCN(P(N)(N)=O)C1=O assay_result="107 nM"
